System: A549
Experiment: NCI tumour cell line growth inhibition, 48 h
Activity calls are given as the source filed them. Rule as the data show it: active = GI50 up to about 1.1 µM and inactive = higher.
Below, each entry is listed alongside its reported GI50.

O=C(/C=C/c1ccc(O)c(-c2cc(C(=O)/C=C/c3ccc(O)cc3)c(O)cc2O)c1)c1ccc(O)cc1O = > 50 µM (inactive)

Problem: Input CCOC(=O)C(CO)c1nc2c([nH]c1=O)c(=O)n(C)c(=O)n2C (stereo not given) , output reported GI50.
Result: > 100 µM (inactive)

Problem: For the molecule c1ccc(CSSSCc2ccccc2)cc1 [DIBENZYL TRISULFIDE] , give its measured GI50 value.
Result: 5.09 µM (inactive)

Problem: Query GI50 for `O=C(CCc1ccc(O)c(O)c1)NCCc1cc(O)cc(O)c1`
Result: > 100 µM (inactive)

Problem: State its GI50 for this molecule: COc1cc2c(cc1OC)C1C=NC(C2)c2cc(OC)c(OC)cc21 (stereo not given)
Result: 78.7 µM (inactive)
